Molecular target: Genome polyprotein (dengue virus type 2, UniProt P29990)
Sequence (P29990 1346-1475 limits assumed): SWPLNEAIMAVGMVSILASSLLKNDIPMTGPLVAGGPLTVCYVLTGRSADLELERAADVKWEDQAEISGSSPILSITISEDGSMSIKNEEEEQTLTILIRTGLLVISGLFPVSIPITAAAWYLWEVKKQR
Sequence (P29990 1476-2093 limits assumed): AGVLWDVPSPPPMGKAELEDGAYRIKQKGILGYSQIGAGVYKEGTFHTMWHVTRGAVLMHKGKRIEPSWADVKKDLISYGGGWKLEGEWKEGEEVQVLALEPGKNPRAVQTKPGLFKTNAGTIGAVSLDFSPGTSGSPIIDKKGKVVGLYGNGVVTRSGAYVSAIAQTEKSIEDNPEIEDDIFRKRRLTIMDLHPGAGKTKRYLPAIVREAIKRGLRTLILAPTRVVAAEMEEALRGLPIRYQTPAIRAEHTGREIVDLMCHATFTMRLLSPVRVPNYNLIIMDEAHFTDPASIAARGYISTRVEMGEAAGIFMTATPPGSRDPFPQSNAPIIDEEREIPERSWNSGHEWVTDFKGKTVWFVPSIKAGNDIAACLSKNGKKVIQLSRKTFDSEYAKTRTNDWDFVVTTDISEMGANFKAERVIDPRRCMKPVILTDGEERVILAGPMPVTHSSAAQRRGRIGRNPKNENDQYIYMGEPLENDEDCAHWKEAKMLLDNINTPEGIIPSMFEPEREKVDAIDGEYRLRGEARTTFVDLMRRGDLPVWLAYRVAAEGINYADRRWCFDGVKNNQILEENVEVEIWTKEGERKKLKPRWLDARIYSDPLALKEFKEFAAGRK
pIC50: −log10 of the molar value.
# pIC50 values compiled below
observed property: pIC50

>>> print(df.to_string())
                             compound_smiles  observed_property  value_modifier   val
 0  NCc1ccc(-c2ncc(NCC3CCNCC3)nc2-c2ccc(-c3ccoc3)cc2)cc1              pIC50               =  6.54
 1  ONCc1ccc(-c2ncc(OCCC3CCNCC3)nc2-c2ccc(CNO)cc2)cc1              pIC50               =  5.42
 2  Cc1cc(CN)ccc1-c1ncc(OCC2CCNCC2)nc1-c1ccc(CN)cc1C              pIC50               =  5.20
 3  Brc1ccc(-c2ncc(OCC3CCNCC3)nc2-c2ccc(Br)cc2)cc1              pIC50               =  4.46
 4  NCc1ccc(-c2ncc(OCC3CCNCC3)nc2-c2ccc(-c3ccncc3)cc2)cc1              pIC50               <  4.30
 5  NCc1ccc(-c2ncc(OCC3CCNCC3)nc2-c2ccc(-c3ccoc3)cc2)cc1              pIC50               =  6.23
 6  c1cc(-c2ccc(-c3ncc(OCC4CCNCC4)nc3-c3ccc(-c4ccsc4)cc3)cc2)cs1              pIC50               =  5.44
 7  NCc1ccc(-c2ccc(NCC3CCNCC3)nc2-c2ccc(-c3ccoc3)cc2)cc1              pIC50               =  6.07
 8  CNCc1ccc(-c2ncc(OCC3CCNCC3)nc2-c2ccc(-c3ccoc3)cc2)cc1              pIC50               =  6.14
 9  Ic1ccc(-c2ncc(OCCC3CCNCC3)nc2-c2ccc(I)cc2)cc1              pIC50               =  4.99
10  NCc1ccc(-c2ncc(OCC3CCNCC3)nc2-c2ccc(Oc3ccccc3)cc2)cc1              pIC50               <  4.30
11  CC(C)(C)c1ccc(-c2ncc(OCC3CCNCC3)nc2-c2ccc(C(C)(C)C)cc2)cc1              pIC50               =  5.08

====

System: Nonstructural protein 3 (Zika virus) | Read-out: IC50
Sequence (A0A024AXB9 whole entry): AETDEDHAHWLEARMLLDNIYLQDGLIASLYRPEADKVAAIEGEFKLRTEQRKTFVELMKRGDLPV
observed property: IC50 (µM)

>>> df
                            compound_smiles  value_modifier   val
0  CN(C)Cc1ccc(-c2ncc(OCC3CCNCC3)nc2-c2ccc(CN(C)C)cc2)cc1               =  0.39
1  CC(C)(C)c1ccc(-c2ncc(OCC3CCNCC3)nc2-c2ccc(C(C)(C)C)cc2)cc1               =   3.1
2  COc1cc(-c2nc(OCC3CCNCC3)cnc2-c2ccc(CN)cc2)ccc1-c1ccoc1               =     8
3  Cc1cc(-c2nc(OCC3CCNCC3)cnc2-c2ccc(CN)cc2)ccc1-c1ccoc1               =  10.6
4  NCc1ccc(-c2ncc(OCC3CCNCC3)nc2-c2ccc(-c3ccoc3)cc2CO)cc1               >    10
5  OCc1ccc(-c2ncc(OCCC3CCNCC3)nc2-c2ccc(CO)cc2)cc1               =   2.1
6  CC(=O)NCc1ccc(-c2ncc(OCC3CCNCC3)nc2-c2ccc(CN)cc2)cc1               =    30
7  Cc1cc(-c2ccoc2)ccc1-c1nc(OCC2CCNCC2)cnc1-c1ccc(CN)cc1               =  17.1
8  NCc1ccc(-c2nc(OCCC3CCNCC3)cnc2-c2ccncc2)cc1               =   1.7
9  NCc1ccc(-c2nc(OCC3CCNCC3)c3nccn3c2-c2ccc(CN)cc2)cc1               =   9.3

====

Target: Nonstructural protein 3 (Zika virus)
Lab note: compare IC50 with 2 µM, writing rule met if less and rule not met if equal or more.

                            compound_smiles         group
0  NCc1ccc(-c2ccc(NCC3CCNCC3)nc2-c2ccc(CN)cc2)cc1  rule not met
1  CN(C)Cc1ccc(-c2nc(OCC3CCNCC3)cnc2-c2ccc(O)cc2)cc1  rule not met
2  CN(C)Cc1ccc(-c2nc(OCC3CCNCC3)cnc2-c2cccnc2)cc1  rule not met
3  NCc1ccc(-c2ncc(OCC3CCNCC3)nc2-c2ccc(C3CCOCC3)cc2)cc1      rule met
4  NCc1ccc(-c2ncc(OCC3CCNCC3)nc2-c2ccc(N3CCOCC3)cc2)cc1  rule not met
5  N#Cc1cc(-c2nc(OCC3CCNCC3)cnc2-c2ccc(CN)cc2)ccc1-c1ccoc1      rule met
6  CNCCOc1cnc(-c2ccc(CN)cc2)c(-c2ccc(-c3ccoc3)cc2)n1  rule not met
7  c1cc(-c2ccc(-c3ncc(OCC4CCNCC4)nc3-c3ccc(-c4ccoc4)cc3)cc2)co1      rule met
8  c1cc(-c2ccc(-c3ncc(OCC4CCNCC4)nc3-c3ccc(-c4ccsc4)cc3)cc2)cs1      rule met
9  Cc1cc(CN)ccc1-c1ncc(OCC2CCNCC2)nc1-c1ccc(-c2ccoc2)cc1  rule not met

====

Molecular target: Nonstructural protein 3 (Zika virus)
observed property: IC50 (nM)

In [3]: df
Out[3]:
                            compound_smiles  observed_property  reading_unit   val
0  NC(=O)c1ccc(-c2ncc(OCC3CCNCC3)nc2-c2ccc(-c3ccoc3)cc2)cc1               IC50            nM  1100
1  NCc1ccc(-c2ncc(OCC3CCNCC3)nc2-c2ccc(C3CCOCC3)nc2)cc1               IC50            nM  1000
2  NCc1ccc(-c2ncc(NCC3CCNCC3)nc2C(=O)Nc2ccc(-c3ccoc3)cc2)cc1               IC50            nM  1100
3  NCc1ccc(-c2ncc(OCC3CCNCC3)nc2-c2ccc(-c3cn[nH]c3)cc2)cc1               IC50            nM   760

====

Biological target: UniProtKB A0A024AXB9
IC50 under 2000 nM gets TRUE, anything at or over 2000 nM gets FALSE.

>>> df
                             compound_smiles  group
 0  Ic1ccc(-c2ncc(OCCCC3CCNCC3)nc2-c2ccc(I)cc2)cc1  FALSE
 1  CC(=O)OCc1ccc(-c2ncc(OCC3CCNCC3)nc2-c2ccc(COC(C)=O)cc2)cc1  FALSE
 2  NCc1ccc(-c2nc(OCCN3CCNCC3)cnc2-c2ccc(-c3ccoc3)cc2)cc1   TRUE
 3  NCc1ccc(-c2ncc(OCC3CCNCC3)nc2-c2ccc(N3CCCC3)cc2)cc1  FALSE
 4  NCc1ccc(-c2ncc(OCC3CCNCC3)nc2-c2ccc(C(=O)N3CCOCC3)cc2)cc1  FALSE
 5  NCc1ccc(-c2ncc(OCCN3CCNCC3)nc2-c2ccc(CN)cc2)cc1  FALSE
 6  Cc1cc(CN)ccc1-c1ncc(OCC2CCNCC2)nc1-c1ccc(CN)cc1C  FALSE
 7  NCCCOc1cnc(-c2ccc(CN)cc2)c(-c2ccc(-c3ccoc3)cc2)n1   TRUE
 8  NCc1ccc(-c2nc(N)c(OCC3CCNCC3)nc2-c2ccc(CN)cc2)cc1  FALSE
 9  NCc1ccc(-c2ncc(NCC3CCNCC3)nc2-c2ccc(-c3ccoc3)cc2F)cc1  FALSE
10  ONCc1ccc(-c2ncc(OCC3CCNCC3)nc2-c2ccc(-c3ccoc3)cc2)cc1   TRUE
